B1: Chromodomain-helicase-DNA-binding protein 4, residues 444 to 496; numbered along this chain, Q14839 (parent)
chain: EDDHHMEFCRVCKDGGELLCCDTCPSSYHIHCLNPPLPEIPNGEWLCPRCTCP

Variants of: B1
PROTOCOL TEXT: abundance fitness (aPCA) (normalised: wild type 0, dead -1); higher = more abundant; growth selection in yeast, the domain comes from the species named
CONDITION SET: Homo sapiens
Returns one of Yes or No; Yes when abundance fitness is >= -0.06.

> print(dat)
    sequence.variant  cat
 1              T51N  Yes
 2              S26K   No
 3              S27E   No
 4              L37T   No
 5              W45H   No
 6              G43R  Yes
 7              S26E  Yes
 8              E44L  Yes
 9              C12H   No
10              G15V   No
11              L19E   No
12              I40N   No
13              Y28S   No
14              L37P  Yes
15               M6F   No
16               D2E  Yes
17              E39W   No
18              I30D   No
19              E44S  Yes
20              I40K  Yes
21              R10K  Yes
22              L19G   No
23              P35N   No
24              C20V  Yes
25              C52T  Yes
26              L37C   No
27               E7T   No
28              C47Y   No
29               C9I   No
30               C9A   No
31              D22P   No
32              P38W   No
33              G15M   No
34              I30C   No
35               F8C  Yes
36              C24S   No
37               E1R   No
38              R49H  Yes
39               H5S   No
40              S26Q  Yes
41              K13L   No
42              C52G  Yes
43              L33R   No
44              C12G   No
45              P48C   No
46              H29N   No
47              I40M   No
48              G16D   No
49              I30S  Yes
50              E17K  Yes
51              G15W   No
52              C21S   No
53              N34G   No
54              C12W   No
55              C32F   No
56              K13C   No
57              L19D   No
58              R10Q  Yes
59              E44G  Yes
60              T51Y   No
61              R10C  Yes
62              C24Q   No
63              C50Q   No
64              N42Y   No
65              N34K  Yes
66               H5R  Yes
67               E7H   No
68              E44F   No
69              E17Q   No
70              S27H   No
71               D3G   No
72              W45Y   No
73              H31D   No
74              V11F   No
75               D2A  Yes
76              L19N   No
77              C50M   No
78              C24F   No
79              C32E   No
80              P35Q   No
81              P25E   No
82              E39F  Yes
83              Y28E   No
84              C32I   No
85              P48L   No
86              P36R   No
87              P41T   No
88               D2V  Yes
89               H5I  Yes
